assay text: Primary qHTS for delayed death inhibitors of the malarial parasite plastid, 48 hour incubation
experimental setup: P. falciparum luciferase growth in erythrocytes; series mostly up to 28.7 µM
Hit rate of the full screen: of about 310,000 compounds, about 18,000 (5.8%) were called active. Not shown: some 22% with an inconclusive outcome. Calls come from the whole dose curve; as a rule, active = well fitted inhibition curve with a large enough effect; inconclusive = small, poorly fitted or top-dose-only effect, or another doubt; inactive = no such curve, though single readings can be large or run the other way. Many of the other results were omitted from the sample, so actives are more common in it than they were.
Pick from Yes (active), No (inactive) when you respond.

| compound | group |
| --- | --- |
| Cc1c(-c2nn(C)c(=O)c3ccccc23)oc2ccc(F)cc2c1=O | Yes |
| Cc1cc(C)cc(C(=O)NC(CC(N)=O)c2ccc(N3CCC(N4CCCCC4)CC3)c([N+](=O)[O-])c2)c1 (configuration not stated) | No |
| COc1ccc(NC(=O)COC(=O)Cn2c(C)nc3ccccc32)cc1OC | No |
| CSCc1nnc(NC(=O)c2ccc(S(=O)(=O)N3CCCCC3C)cc2)o1 (configuration not stated) | No |
| CSc1ncccc1C(=O)NCc1ccccc1Cl | No |

Outcome logged for `Cc1cccc(OCC(=O)NCCCNC(=O)c2ccccn2)c1` in this assay:
No

Hello, I am checking results. What call was entered for CC(C)c1ccccc1OCC(O)CN(CC(O)COc1cccc2ccccc12)C(C)C (configuration not stated) ?
Yes

What is the recorded call for this compound in the test? `COc1cccc(CNCc2ccc3c(c2)OCO3)c1`
No

Test call for this compound, please: O=C(CN1C(=O)NC2(CCOc3ccccc32)C1=O)NCc1ccc(F)cc1 (configuration not stated)
No

Each compound tested received a call. Report the one for `CC(C)Nc1ncnc2c1nnn2Cc1ccccc1` .
No

So what was the verdict on `CN1CCN(CCCCOc2cccc3ccccc23)CC1` in this test?
No

What classification did Cc1ccn(CCC(=O)N2c3ccccc3CC2C)n1 (configuration not stated) end up with in this test?
No

Write down the call the test reported for this compound. Item: `CCN(CC)CCOc1ccc2c(c1)C(=NNC(=O)c1ccccn1)c1cc(OCCN(CC)CC)ccc1-2`
Yes

Field: outcome | Entry: CCC(C)(NC(=O)c1ccccn1)C(=O)NC1CCCCC1 (configuration not stated)
No

Which outcome did this test record for the compound COCCOC(=O)C1=C(C)N=c2s/c(=C\c3cccs3)c(=O)n2C1c1cccs1 (configuration not stated) ?
Yes

Values from PubChem BioAssay AID504832
